pKd overview
tgt: T1, human ALK on the surface of NB1 cells (human, UniProt Q9UM73 21-1620)
T1 construct: ALK of NB1 cells; also called cell surface hALK; NB1 (human)
protocol.summary: flow cytometry titration on NB1 cells, steady state
pKd: −log10 of the molar value.
quantity.name: pKd

binder="Ab320 (antibody, V domains shown, rodent hybridoma mAb) VH: QVQLQQSGAELVKPGASVKISCKASGYAFSSYWMNWVKQRPGKGLEWIGQIYPGDGDTNYNGKFKGKATLTADKSSSTAYMQLSSLTSEDSAVYFCASYYYGSKAYWGQGTLVTVSA VL: DIQMTQSPASLAASVGETVTITCRASENIYYSLAWYQQKQGKSPQLLIYNANSLEDGVPSRFSGSGSGTQYSMKINSMQPEDTATYFCKQAYDVPFTFGSGTKLEIKR" quantity_name=pKd reported_value=9.46
binder="Ab329 (antibody, V domains shown, rodent hybridoma mAb) VH: QVQLKESGPGLVKPSATLSLTCTVSGFSLTSYHVCWIRQTPGKGLEWMGVIWGDGRTTYNPPLKSRLSISRDTSKSQVFLKMSSLKTEDTATYYCARATMTGHGDAWGQGASVTVSS VL: DIQMTQSPASLSASLEEIVTITCQASQDIDNYLSWYQQKPGKSPHLLIHSATSLADGVPSRFSGGRSGTQFSLKINRLQVEDTGIYYCLQHYSGWTFGGGTKLELKR" quantity_name=pKd reported_value=9.47
binder="Ab325 (antibody, V domains shown, rodent hybridoma mAb) VH: QVQLQQSGAELVKPGASVKISCKASGYAFSSYWMNWVKQRPGKGLEWIGQIYPGDGDTNYNGKFKGKATLTADKSSSTAYMQLSSLTSEDSAVYFCARWYYGSYYAMDYWGQGTSVTVSS VL: DIQMTQTTSSLSASLGDRVTISCRASQDISNYLNWYQQKPDGTVKLLIYYTSRLHSGVPSRFSGSGSGTDYSLTISNLEQEDIATYFCQQGNTLPRTFGGGTKLEIKR" quantity_name=pKd reported_value=10.00
